Test system: L1210 leukemia ip in BDF1 mice, survival T/C
Assay Name: NCI In Vivo Anticancer Drug Screen. Data for tumor model L1210 Leukemia (intraperitoneal) in B6D2F1 (BDF1) mice
Condition Description: endpoint: mean survival time; dose: 200.0 mg/kg/injection; schedule: Q01DX005 (ip); vehicle: saline; higher = longer survival
Toxic doses and inconclusive results are not listed.
Quantity: T/C

Tell me the measured T/C of `Cn1cnc([N+](=O)[O-])c1/N=C/c1ccccc1` , please.
104 % of control

Entry CC1(C)OC2COC(c3[nH]nc(C(N)=O)c3Br)C2O1 (stereo not given) : reported T/C = ?
96 % of control

Bench note: what T/C did CC(=O)OCC1OC(n2cnc3c(N)ncnc32)C(OC(C)=O)C1OC(C)=O (stereo not given) show?
95 % of control

For the molecule shown here, O=c1n(C2OC(CO)C(O)C2O)ccc2nccn12 (stereo not given) , give the reported T/C.
92 % of control

# input molecule: O=c1[nH]cnc2nn(C3OC(CO)C(O)C3O)cc12 (stereo not given) ; wanted: its T/C
104 % of control

----------
Tested on: L1210 leukemia ip in BDF1 mice, survival T/C
Assay Name: NCI In Vivo Anticancer Drug Screen. Data for tumor model L1210 Leukemia (intraperitoneal) in B6D2F1 (BDF1) mice
Condition Description: endpoint: mean survival time; dose: 100.0 mg/kg/injection; schedule: Q04DX002 (ip); vehicle: saline; higher = longer survival
Toxic doses and inconclusive results are not listed.
Quantity: T/C

Item under review: `O=C(/C=C/c1ccccc1)N/N=C/c1ccncc1` . Reported T/C?
91 % of control

May I ask what T/C has been recorded for `CN(C)CCS(=O)(=O)c1ccc(Cl)cc1` ?
102 % of control

Look at this compound and give its reported T/C. `NC(=S)N/N=C/c1c(Cl)[nH]c2ccccc12`
102 % of control

Query (compound): `CC(C)(C)SCCO` ; field requested: T/C
105 % of control

Endpoint output: T/C of CC(N)CC12CC3CC(CC(C3)C1)C2 (stereo not given) . Value?
97 % of control

----------
Test system: L1210 leukemia ip in BDF1 mice, survival T/C
Assay Name: NCI In Vivo Anticancer Drug Screen. Data for tumor model L1210 Leukemia (intraperitoneal) in B6D2F1 (BDF1) mice
Condition Description: endpoint: mean survival time; dose: 25.0 mg/kg/injection; schedule: Q04DX003 (ip); vehicle: saline; higher = longer survival
Inconclusive results and toxic doses are left out.
Assign T/C to each entry below.

Given `CN=NC(C)(C)OC(C)=O` , state its recorded T/C.
107 % of control

Tell me the measured T/C of `CCN(C)CCC(C=NCC(CCN(C)CC)(CCN(C)CC)c1cccc2ccccc12)(CCN(C)CC)c1cccc2ccccc12` , please.
106 % of control

What does the data say about its T/C? Entry: CC(NC(=O)OCc1ccccc1)C(=O)NC(CC(=O)O)C(=O)O (centres undefined)
93 % of control

Reported T/C for `NC(=S)c1ccc(N)cc1` : what is it?
103 % of control

----------
Exercise: for every item that follows, state its recorded T/C.
System: L1210 leukemia ip in BDF1 mice, survival T/C
Assay Name: NCI In Vivo Anticancer Drug Screen. Data for tumor model L1210 Leukemia (intraperitoneal) in B6D2F1 (BDF1) mice
Condition Description: endpoint: mean survival time; dose: 100.0 mg/kg/injection; schedule: Q04DX002 (ip); vehicle: saline with Tween-80; higher = longer survival
Inconclusive results and toxic doses are left out.

Given the entry `COc1ccc(NC(=S)Nc2ccccc2)cc1` , report its measured T/C.
101 % of control

// query T/C value for entry `Cc1nc(CCl)no1`
104 % of control

May I ask what T/C has been recorded for `COc1cc(/C=N\N=C(/C)c2ccc(C)cc2C)cc(OC)c1OC` ?
88 % of control

Any idea what T/C was measured for `CC(=O)Nc1c2ccccc2nc2ccccc12` ?
90 % of control

For the compound shown here, O=CC(O)C(O)C(Cl)C(O)CCl (configuration not stated) , give the reported T/C.
90 % of control

Reported T/C, compound O=[N+]([O-])c1ccc(N/N=C/C(O)C(O)C(O)CO)cc1 (configuration not stated) : ____
106 % of control

// lookup T/C for `Cc1ccc(C(C)(C)[CH2][Sn]([CH2]C(C)(C)c2ccc(C)cc2)([CH2]C(C)(C)c2ccc(C)cc2)[CH2]C(C)(C)c2ccc(C)cc2)cc1`
100 % of control

----------
Test system: L1210 leukemia ip in BDF1 mice, survival T/C
Assay Name: NCI In Vivo Anticancer Drug Screen. Data for tumor model L1210 Leukemia (intraperitoneal) in B6D2F1 (BDF1) mice
Condition Description: endpoint: mean survival time; dose: 400.0 mg/kg/injection; schedule: Q04DX003 (ip); vehicle: Klucel (hydroxypropylcellulose) (HPC); higher = longer survival
Toxic doses and inconclusive results are not listed.
Quantity: T/C

If you can, please state the reported T/C value of `COc1ccc2c(c1)CCc1cnoc1-2` .
95 % of control

What value of measured T/C is listed for `O=[N+]([O-])c1ccc(I)c(F)c1` ?
104 % of control

Please report the recorded T/C for CC12CCC3C(CC=C4CC(SC(=N)N)CCC43C)C1CCC2=O (centres undefined) .
97 % of control

Field request: T/C | item: `O=C(C(=O)c1ccc([N+](=O)[O-])cc1)c1ccccc1`
94 % of control

Request the reported T/C associated with Cc1ccc2c(c1)C1CCC3(CC1OC2(C)C)OC(C)(C)c1cc(C)ccc13 (centres undefined)
95 % of control

Recorded T/C for `CC(=O)Nc1ccccc1F` , please?
95 % of control

Which T/C is listed for `CC(=O)Nc1cc(Cl)cc2c1-c1c(Cl)cc(Cl)cc1C2=O` ?
91 % of control

Which T/C value belongs to `Cc1ccc2nc(-c3cc(Br)ccc3O)c(-c3cc(Br)ccc3O)nc2c1` ?
101 % of control

Would you mind telling me what T/C value was observed for `CC(=O)c1c(C)cc2cc(C)cc(O)c2c1O` ?
101 % of control

Need T/C, item `O=S(=O)(Nc1ccc(NS(=O)(=O)c2ccccc2)nc1)c1ccccc1`
101 % of control

May I ask what T/C has been recorded for `Cc1ccccc1NC(=O)Nc1ccccc1F` ?
110 % of control

Quick check: T/C of `COc1ccc(C(=O)NCCBr)cc1[N+](=O)[O-]` ?
111 % of control

Requested read-out: T/C. Entry: NNC(=O)C(Sc1ccccc1)c1ccccc1 (centres undefined)
101 % of control

Using the record for `Fc1cccc(/C=C2/c3cc(Cl)ccc3-c3c(Cl)cc(Cl)cc32)c1` , report its T/C.
88 % of control

What measured T/C goes with NC1(C(=O)O)Cc2ccccc2B(O)OC1=O (centres undefined) ?
106 % of control

T/C lookup needed for `Cc1cc(N(C)C)ccc1C=O` , thanks.
98 % of control

Item `NC(=O)NNC(=O)c1ccccc1` has what recorded T/C?
100 % of control

Given the entry CC(=O)OCC1OC(OC(C)=O)C(NC(=O)N(C)c2ccccc2)C(OC(C)=O)C1OC(C)=O (centres undefined) , report its measured T/C.
105 % of control

Quick one: T/C of `O=C(Cc1ccc([N+](=O)[O-])cc1)c1ccccc1` ?
101 % of control

----------
Tested on: L1210 leukemia ip in BDF1 mice, survival T/C
Assay Name: NCI In Vivo Anticancer Drug Screen. Data for tumor model L1210 Leukemia (intraperitoneal) in B6D2F1 (BDF1) mice
Condition Description: endpoint: mean survival time; dose: 400.0 mg/kg/injection; schedule: Q01DX001 (ip); vehicle: Klucel (hydroxypropylcellulose) (HPC); higher = longer survival
Inconclusive results and toxic doses are left out.
Quantity: T/C

Entry CC1(C)c2ccccc2C(=O)/C(=C/c2ccccc2)C1NC1CCCCC1 (configuration not stated) : reported T/C = ?
92 % of control

Given the entry `COc1cc2c(c3c1CCC(C)(C)O3)Cc1c(cc(OC)c(OC)c1CCC(C)(C)O)O2` , report its measured T/C.
92 % of control

Query: T/C; subject: `CC(=O)OC1=COc2c(Cl)ccc3cccc1c23`
97 % of control

Can you look up the measured T/C of `CCCCCCCCCCCCCSCCCCCCCCCCCCSCCCCCCCCCCCC` for me?
89 % of control

Please give the measured T/C for this compound: CC(C)C1C(C(C)C)N1C(=O)Nc1ccccc1 (configuration not stated)
93 % of control

T/C lookup needed for COC(=O)C(CCC(=O)O)NC(=O)C(F)(F)F (configuration not stated) , thanks.
89 % of control

Look at this compound and give its reported T/C. CC1C(=O)OC2C1CCC1(C)C=CC(=O)C3(C)OC213 (configuration not stated)
96 % of control

May I ask what T/C has been recorded for `CCOC(=O)c1[nH]c(C)c(CC(C(=O)OCC)C(=O)OCC)c1C` ?
98 % of control

Dear colleague, I am looking for the recorded T/C of the following compound: `S=C(Nc1ccccc1)N1CC1`
94 % of control

Need T/C of `CC(C)NC(=O)NC(C)C` , thanks.
94 % of control

Entry under review: CC(=O)c1ccc(CC2CC3CCC2C3)cc1 (configuration not stated) . Reported T/C?
89 % of control

// T/C lookup, key: Cc1ncc(C(=O)O)n1C(C)c1ccccc1 (configuration not stated)
96 % of control
